- System: cells (nuclei count)
- test settings: 10 μM; toxicity data; 100=DMSO control
measurement label: Relative cell count to DMSO controls, Average 10 μM

Here are 3 compounds together with their reported answers.
INSERT INTO measurements (compound, test_system, observed_result) VALUES
  ('CCN(CC)CCN(Cc1ccc(C)o1)Cc1cccs1', 'cells (nuclei count)', 120.3),
  ('COc1ccc(-c2[nH]ncc2C(=O)NCC2CCC2)cc1OC', 'cells (nuclei count)', 100.51),
  ('CC1=C(C(=O)NCC2CCC2)C(c2cccs2)NC(=O)N1 (stereo not drawn)', 'cells (nuclei count)', 116.29);

Challenge: Please give measured Relative cell count to DMSO controls, Average 10 μM of the following entry: Cc1cc(CN(CCN(C)C)Cc2ccco2)sc1Br
Response given: 107.75

Challenge: Please give measured Relative cell count to DMSO controls, Average 10 μM of the following entry: COc1ccc(CNCCc2ccccc2F)c(OCC(O)CN2CCN(C)CC2)c1 (stereo not drawn) [SILCS46]
Response given: 126.44

Challenge: Please give measured Relative cell count to DMSO controls, Average 10 μM of the following entry: CCN(CC)CCN(Cc1ccccc1)Cc1ccccn1
Response given: 80.17

Challenge: Please give measured Relative cell count to DMSO controls, Average 10 μM of the following entry: OC(COc1c(CNCCc2ccccc2F)cccc1N1CCNCC1)CN1CCCC1 (stereo not drawn)
Response given: 137.18

Challenge: Please give measured Relative cell count to DMSO controls, Average 10 μM of the following entry: CC1=C(C(=O)NCc2ccccc2)C(c2ccc(C)o2)NC(=O)N1 (stereo not drawn)
Response given: 108.32

Challenge: Please give measured Relative cell count to DMSO controls, Average 10 μM of the following entry: Cc1csc(CN(CCN(C)C)Cc2ccco2)c1
Response given: 88.87

====

- Tested on: cells (nuclei count)
- test settings: 25 μM; toxicity data; 100=DMSO control
The following compounds are listed with their measured Relative cell count to DMSO controls, Average 25 μM values.
Just the number.

Here are 5 compounds together with their reported answers.
INSERT INTO measurements (compound, observed_result) VALUES
  ('OC(COc1c(CNCCc2ccccc2F)cccc1N1CCNCC1)CN1CCCC1 (stereo not shown)', 131.85),
  ('CN(C)CCN(Cc1ccccc1)Cc1cc(C#CCO)cs1', 105.3),
  ('CCN(CC)CCN(Cc1ccccn1)Cc1ccc(C)o1', 91.83),
  ('CN1CCN(CC(O)COc2c(CNCCc3ccccc3F)cccc2C2CCCCC2)CC1 (stereo not shown)', 3.91),
  ('CCOc1cccc(CNCCc2ccccc2F)c1OCC(O)CN1CCN(C)CC1 (stereo not shown)', 117.43);

Pending compound:
Challenge: Please give measured Relative cell count to DMSO controls, Average 25 μM of the following entry: Cc1cc(CN(CCN(C)C)Cc2ccco2)sc1Br
Response given: 115.74

====

- System: Influenza virus
- assay procedure: organism not typed
- Type: cell-based, influenza A virus
- test settings: 10 μM; upper part of table (FIG. 5 data), plaque assay
Cut-off 20000 PFU/virus/ml on Influenza virus titer, 10 μM, inclusive. At or above means MET; below means NOT MET.

Examples from the recorded data:
INSERT INTO assay_data (compound, discrete_label) VALUES
  ('COc1ccc(CNCCc2ccccc2F)c(OCC(O)CN2CCN(C)CC2)c1 (centres unmarked)', 'NOT MET'),
  ('COc1ccc(CNCCCn2cccn2)c(OCC(O)CN2CCN(C)CC2)c1 (centres unmarked)', 'MET'),
  ('COc1ccc(CNCC(F)(F)F)c(OCC(O)CN2CCN(C)CC2)c1 (centres unmarked)', 'MET');

Challenge: Exam item: decide whether the reported Influenza virus titer, 10 μM for COc1ccc(CNC2Cc3ccccc3C2)c(OCC(O)CN2CCN(C)CC2)c1 (centres unmarked) is at least 20000 PFU/virus/ml.
Response given: NOT MET

Numbers sourced from patent US20240132484A1.
